Measured inhibition, listed per entry.
- Experimental protocol: Mycobacterium tuberculosis growth inhibition, primary screen (AID 1259343)
- Test parameters: at 10 µM, stronger effect = higher value
The whole screen tested about 6,200 compounds, of which about 2,900 (47%) were called active. So high a share suggests a set chosen from earlier hits. The list shows a part of the results.
Readout kind: inhibition

>>> endpoint_value("OCC#Cc1csc(CN2CCN(c3nccc4ccccc34)CC2)c1")
"51.9% (active)"
>>> endpoint_value("Cn1c(=O)c([N+](=O)[O-])c(N2CCN(CCOc3ccc(Cl)cc3)CC2)c2ccccc21")
"38.3% (inactive)"
>>> endpoint_value("Cc1cnc(C)c(N2CCN(Cc3cc(C#CCO)cs3)CC2)n1")
"39% (inactive)"
>>> endpoint_value("Cc1ccc(S(=O)(=O)N(C)CCOc2ccccc2C)s1")
"55.1% (active)"
>>> endpoint_value("Cc1cc(Br)c(NC(=O)CN(C)Cc2nc3ccccc3s2)c(Br)c1")
"84.4% (active)"
>>> endpoint_value("Oc1ccc2oc3c(c2c1)CCCC3")
"44.4% (inactive)"
>>> endpoint_value("Nc1ccc(Cl)c(-c2nc3ccccc3o2)c1")
"-33.1% (inactive)"
>>> endpoint_value("CCOc1ccc(NC(=O)COC(=O)c2ccc(Cl)cc2O)cc1")
"94.7% (active)"
>>> endpoint_value("N#Cc1ncn(Cc2nc3scc(-c4ccc(Br)cc4)c3c(=O)[nH]2)n1")
"50.4% (active)"
>>> endpoint_value("Cn1c(=O)c([N+](=O)[O-])c(N2CCN(Cc3ccc(Cl)cc3Cl)CC2)c2ccccc21")
"40.7% (inactive)"
